# Test system: Mus musculus
# Assay Text: Percent of tumor growth inhibition ratio (TGIR)of the compound administered intravenously at dose 100 ug/kg on day 1, 5, 9 in subcutaneously (murine fibrosarcoma Meth A cells) infected in BDF1 mice on day 16
# Type: functional
Measure Name: TGIR (%)
Give the number; % is assumed, so skip it.

// worked examples, TGIR included
CCCCCCCCCCCCCCC[C@@H](O)[C@H](CO[C@H]1O[C@@H](CO)[C@H](O)[C@H](O)[C@@H]1O)NC(=O)CCCCCCCCCCCCC (stereo in doubt; form 3): 28.9
CCCCCCCCCCCCCCC[C@@H](O)[C@H](CO[C@H]1O[C@@H](CO)[C@H](O)[C@H](O)[C@@H]1O)NC(=O)CCCCCCCCCCCCC (stereo in doubt; form 1): 22.1
CCCCCCCCCCCCCCC[C@@H](O)[C@H](CO[C@H]1O[C@@H](CO)[C@H](O)[C@H](O)[C@@H]1O)NC(=O)CCCCCCCCCCCCC (stereo in doubt; form 2): 29.2

Please look at the following molecule next.
The measured TGIR associated with CCCCCCCCCCCCCCC[C@@H](O)[C@H](CO[C@H]1O[C@@H](CO)[C@H](O)[C@H](O)[C@@H]1O)NC(=O)CCCCCCCCCCCCC (stereo in doubt; form 4) reads 58.1
